experiment.description: Pharmacokinetic study in rats
condition.context: SD, rat, plasma, po, 20 umol/kg, AUC(0-t), SD rats, intragastric
Counter-ions that a name gives are not always drawn.
endpoint: AUC(0-t) (µM·h)
Respond numerically; units are µM·h and should not be typed.

get_value(item= CNC(=O)c1ccc(-c2cnc3ncc(Cc4ccc5ncccc5c4)n3n2)cc1F [INCB28060 hydrochloride] , readout=AUC(0-t)) returns 3.73

###

experiment.description: Pharmacokinetic study in rats
condition.context: SD, rat, plasma, po, 20 umol/kg, Cmax, SD rats, intragastric
Structures can show the parent of a compound that is named as a salt.
endpoint: Cmax (nM)
Reply with just the number (in nM).

// sample CNC(=O)c1ccc(-c2cnc3ncc(Cc4ccc5ncccc5c4)n3n2)cc1F [INCB28060 hydrochloride] , its Cmax was 1030

###

experiment.description: Pharmacokinetic study in rats
condition.context: SD (Sprague-Dawley), rat, plasma, oral, 20 μmol/kg, Plasma concentration Mean, SD rats, intragastric 20 μmol/kg, 480 min, mean of 3 rats
Where a name gives a salt, the structure may show the parent alone.
endpoint: concentration at 480 min (nM)
The figure you give is taken to be in nM; do not add the unit.

Lab note: measured concentration at 480 min of CNC(=O)c1ccc(-c2cnc3ncc(Cc4ccc5ncccc5c4)n3n2)cc1F [INCB28060 hydrochloride] was 80

###

experiment.description: Pharmacokinetic study in rats
condition.context: SD (Sprague-Dawley), rat, plasma, oral, 20 μmol/kg, Plasma concentration Mean, SD rats, intragastric 20 μmol/kg, 720 min, mean of 3 rats
Where a name gives a salt, the structure may show the parent alone.
endpoint: concentration at 720 min (nM)
Report as a plain number; the unit nM is understood.

Item: CNC(=O)c1ccc(-c2cnc3ncc(Cc4ccc5ncccc5c4)n3n2)cc1F [INCB28060 hydrochloride] | concentration at 720 min: 30

###

experiment.description: Pharmacokinetic study in rats
condition.context: SD (Sprague-Dawley), rat, plasma, oral, 20 μmol/kg, Plasma concentration Rat 3, SD rats, intragastric 20 μmol/kg, 480 min, Rat 3
Description: All stock solutions of the test compound were sonicated and heated to become clarified and formulated to a 25 mM solution with DMSO. All samples were dosed at 20 μmol/kg. The blood sample was centrifuged at 8000 rpm for 5 min, the plasma was collected in a centrifuge tube and stored at −20° C. for use. Treatment of the plasma sample: the proteins in 50 μL plasma sample were precipitated with 200 μL acetonitrile containing internal standard (Propranolol (PRO), 2.5 ng/mL). […]
Counter-ions that a name gives are not always drawn.
endpoint: concentration at 480 min
Field note: include the unit after the figure.

Reported concentration at 480 min of CNC(=O)c1ccc(-c2cnc3ncc(Cc4ccc5ncccc5c4)n3n2)cc1F [INCB28060 hydrochloride] : 107 nM

###

experiment.description: Pharmacokinetic study in rats
condition.context: SD (Sprague-Dawley), rat, plasma, oral, 20 μmol/kg, Plasma concentration Rat 2, SD rats, intragastric 20 μmol/kg, 60 min, Rat 2
Counter-ions that a name gives are not always drawn.
endpoint: concentration at 60 min (nM)
Quick reminder: number only, in nM, skip the unit.

Reported concentration at 60 min of CNC(=O)c1ccc(-c2cnc3ncc(Cc4ccc5ncccc5c4)n3n2)cc1F [INCB28060 hydrochloride] : 1210

###

experiment.description: Pharmacokinetic study in rats
condition.context: SD, rat, plasma, oral, 20 μmol/kg, Plasma concentration Rat 2, SD rats, intragastric 20 μmol/kg, 15 min, Rat 2
Counter-ions that a name gives are not always drawn.
endpoint: concentration at 15 min (nM)
Respond numerically; units are nM and should not be typed.

Reported concentration at 15 min of CNC(=O)c1ccc(-c2cnc3ncc(Cc4ccc5ncccc5c4)n3n2)cc1F [INCB28060 hydrochloride] : 732

###

experiment.description: Pharmacokinetic study in rats
condition.context: SD, rat, plasma, oral, 20 μmol/kg, Plasma concentration Mean, SD rats, intragastric 20 μmol/kg, 30 min, mean of 3 rats
Counter-ions that a name gives are not always drawn.
endpoint: concentration at 30 min
Please append the unit to your numeric answer.

Entry under test: CNC(=O)c1ccc(-c2cnc3ncc(Cc4ccc5ncccc5c4)n3n2)cc1F [INCB28060 hydrochloride] . Its concentration at 30 min was 1030 nM

###

experiment.description: Pharmacokinetic study in rats
condition.context: SD (Sprague-Dawley), rat, plasma, oral, 20 μmol/kg, Plasma concentration Mean, SD rats, intragastric 20 μmol/kg, 1440 min, mean of 3 rats
Structures can show the parent of a compound that is named as a salt.
endpoint: concentration at 1440 min (nM)
Numbers only; they are read as nM.

// field: concentration at 1440 min; key: CNC(=O)c1ccc(-c2cnc3ncc(Cc4ccc5ncccc5c4)n3n2)cc1F [INCB28060 hydrochloride] ; value = 10

###

experiment.description: in vivo
condition.context: SD, rat, in vivo, po, 20 umol/kg, Cmax
endpoint: Cmax (µM)
All answers are understood in µM, so give the number only.

Measured Cmax of Cn1cc(-c2cnc3ccc(Cn4nnc5ncc(-c6cnn(C)c6)nc54)cc3c2)cn1 [crystal form A of SPH1772 ditartrate] : 16

###

experiment.description: Pharmacokinetic study in rats
condition.context: SD, rat, plasma, po, 20 umol/kg, AUCtot, SD rats, intragastric
Counter-ions that a name gives are not always drawn.
endpoint: AUC (µM·h)
# value in µM·h; strip the unit string

The compound identified as CNC(=O)c1ccc(-c2cnc3ncc(Cc4ccc5ncccc5c4)n3n2)cc1F [INCB28060 hydrochloride] registered its AUC at 3.8

###

experiment.description: Pharmacokinetic study in rats
condition.context: SD (Sprague-Dawley), rat, plasma, oral, 20 μmol/kg, Plasma concentration Rat 2, SD rats, intragastric 20 μmol/kg, 5 min, Rat 2
Structures can show the parent of a compound that is named as a salt.
endpoint: concentration at 5 min (nM)
Reply numerically in nM, unit not repeated.

Record CNC(=O)c1ccc(-c2cnc3ncc(Cc4ccc5ncccc5c4)n3n2)cc1F [INCB28060 hydrochloride] . Reported concentration at 5 min: 42.5

###

experiment.description: Pharmacokinetic study in rats
condition.context: SD, rat, plasma, oral, 20 μmol/kg, Plasma concentration Rat1, SD rats, intragastric 20 μmol/kg, 30 min, Rat1
Where a name gives a salt, the structure may show the parent alone.
endpoint: concentration at 30 min

For CNC(=O)c1ccc(-c2cnc3ncc(Cc4ccc5ncccc5c4)n3n2)cc1F [INCB28060 hydrochloride] the compound record lists concentration at 30 min as 784 nM

###

experiment.description: Pharmacokinetic study in rats
condition.context: SD, rat, plasma, oral, 20 μmol/kg, Plasma concentration Mean, SD rats, intragastric 20 μmol/kg, 5 min, mean of 3 rats
Counter-ions that a name gives are not always drawn.
endpoint: concentration at 5 min (nM)
Express the result in nM but write the number alone.

Field concentration at 5 min (entry CNC(=O)c1ccc(-c2cnc3ncc(Cc4ccc5ncccc5c4)n3n2)cc1F [INCB28060 hydrochloride] ) reads 30

###

experiment.description: Pharmacokinetic study in rats
condition.context: SD, rat, plasma, po, 20 umol/kg, AUCextra, SD rats, intragastric
Structures can show the parent of a compound that is named as a salt.
endpoint: AUC (µM·h)
# output: bare number, implied unit µM·h

So for CNC(=O)c1ccc(-c2cnc3ncc(Cc4ccc5ncccc5c4)n3n2)cc1F [INCB28060 hydrochloride] , the logged AUC turned out to be 0.0715
